Test system: Puccinia recondita f. sp. tritici (the causal agent of wheat leaf rust)
assayMethodText: Test C: preventive spray on wheat seedlings, wheat leaf rust, visual disease rating
Format: in vivo
runConditions: test suspension 10 ppm; wheat seedlings
// label = yes if Test C disease control rating is not less than 90%, otherwise no

Here's what some known entries look like.
>>> print(df.to_string())
                             compoundsmiles  answerlabel
0  O=C(NCCn1cccn1)c1cnn(COc2ccc(-c3noc(C(F)(F)F)n3)cc2)c1           no
1  N#Cc1coc(Cc2ccc(-c3noc(C(F)(F)F)n3)cc2)n1          yes
2  COC(=O)c1cccc2c1cnn2Cc1ccc(-c2noc(C(F)(F)F)n2)cc1          yes
3  Cc1nc(COc2ccc(-c3noc(C(F)(F)F)n3)cc2)cs1           no
4  O=C(NCC=C(Cl)Cl)c1csc(Cc2ccc(-c3noc(C(F)(F)F)n3)cc2)n1           no

Is the recorded value of Test C disease control rating equal to or greater than 90% for this compound? `CCCCON=C(C)COC(=O)c1cnn(Cc2ccc(-c3noc(C(F)(F)F)n3)cc2)c1` no

Is the recorded value of Test C disease control rating equal to or greater than 90% for this compound? `CNC(=O)c1cnn(Cc2ccc(-c3noc(C(F)(F)F)n3)cc2)c1` yes

Is the recorded value of Test C disease control rating equal to or greater than 90% for this compound? `CN(C)C(=O)c1cnn(Cc2ccc(-c3noc(C(F)(F)F)n3)cc2)c1` yes

Is the recorded value of Test C disease control rating equal to or greater than 90% for this compound? `COC(=O)c1ccc(COc2ccc(-c3noc(C(F)(F)F)n3)cc2)cc1` no

---

Below, each entry is listed alongside its reported Test A disease control rating.
Tested on: Phakopsora pachyrhizi (the causal agent of Asian soybean rust)
assayMethodText: Test A: preventive spray on soybean seedlings, Asian soybean rust, visual disease rating
Format: in vivo
runConditions: test suspension 10 ppm; soybean seedlings; 100 = 100% disease control, 0 = no control
Numbers only; they are read as %.

// below: answered molecules
>>> df
                                   molecule                        targetortestsystem                        readout  measurement
0  O=C1c2ccnn2CCN1Cc1ccc(-c2noc(C(F)(F)F)n2)cc1  Phakopsora pachyrhizi (the causal agent of Asian soybean rust)  Test A disease control rating          100
1  FC(F)(F)c1nc(-c2ccc(OCc3cn4cccnc4n3)cc2)no1  Phakopsora pachyrhizi (the causal agent of Asian soybean rust)  Test A disease control rating           97
2  CCCOC(=O)c1cnn(C(C)c2ccc(-c3noc(C(F)(F)F)n3)s2)c1 (centres unmarked) [compound 248]  Phakopsora pachyrhizi (the causal agent of Asian soybean rust)  Test A disease control rating          100
3  C#CCOC(=O)c1cnn(Cc2ccc(-c3noc(C(F)(F)F)n3)s2)c1  Phakopsora pachyrhizi (the causal agent of Asian soybean rust)  Test A disease control rating          100

Note: attention shifts to another entry.
Per the records, this molecule ( `O=C(c1coc(Cc2ccc(-c3noc(C(F)(F)F)n3)cc2)n1)N1CCC1` ) has Test A disease control rating equal to 100

---

System: Puccinia recondita f. sp. tritici (the causal agent of wheat leaf rust)
assayMethodText: Test C: preventive spray on wheat seedlings, wheat leaf rust, visual disease rating
Assay type: in vivo
runConditions: test suspension 10 ppm; wheat seedlings
readout: Test C disease control rating (%)
Numbers only; they are read as %.

>>> print(df.to_string())
                                   molecule                        readout  displayunit  measurement
0  O=C(O)c1cc(C(=O)O)n(Cc2ccc(-c3noc(C(F)(F)F)n3)cc2)n1  Test C disease control rating            %            0
1  CCCOC(=O)c1cnn(C(C)c2ccc(-c3noc(C(F)(F)F)n3)s2)c1 (stereo not drawn) [compound 249]  Test C disease control rating            %          100

Note: attention shifts to another entry.
Per the records, this molecule ( `FC(F)(F)c1nc(-c2ccc(Cn3cc4c(Cl)cc(Br)cc4n3)cc2)no1` ) has Test C disease control rating equal to 68
